Hi there, I'd appreciate the recorded GI50 for every entry that follows.
test system: KM-20L2; assay: NCI tumour cell line growth inhibition, 48 h
The source made the active and inactive calls. Cut-off read from the data, not from the text of the source: active = GI50 up to about 1.1 µM and inactive = higher.

Recorded GI50, per entry:
[O-][S+]1c2ccccc2N=C(c2ccc(Cl)cc2)CC1c1cccs1 (configuration not stated) :: 20.9 µM (inactive)
FC(F)(F)C1(Cl)C(Cl)(c2ccccc2)C1(Cl)c1ccccc1 (configuration not stated) :: 13.9 µM (inactive)
CCOC1=NC(=O)CC(c2ccccc2)S1 (configuration not stated) :: > 100 µM (inactive)
CC(=O)O[C@H]1C=CC(=O)C(C)CC1C (some centres not stated) :: > 100 µM (inactive)
CCCCS(=O)(=O)Nc1ccc(Nc2c3ccccc3nc3ccccc23)c(OC)c1 :: 3.14 µM (inactive)

Lab note: each compound below needs its GI50 filled in.
1. COc1ccc(NC(=O)CC/C(CC(=O)c2ccco2)=N/NC(=O)C(N)=O)cc1
2. COC(=O)NNc1c([N+](=O)[O-])cnn(-c2ccccc2)c1=O
3. CCC(=O)NCC1(c2c[nH]c3ccccc23)SCCS1
4. O=C(/C(=C/c1ccccc1)c1ccccc1)N1c2ccccc2CC1c1c[nH]c2ccccc12 (configuration not stated)
5. N/N=c1/nc2n(c3ncccc13)C=CNN2

1. > 100 µM (inactive)
2. 3.37 µM (inactive)
3. > 100 µM (inactive)
4. 26.8 µM (inactive)
5. > 100 µM (inactive)

Hey, quick one: what's GI50 for each of these?
1. O=C(O/N=C1/CCCC/C1=C\c1ccccc1)c1ccc(Cl)cc1
2. O=[N+]([O-])c1nccn1COCCI

["> 100 µM (inactive)", "> 100 µM (inactive)"]

Parameter requested: GI50. Apply to each item below.
1. CC(=O)CCC1(c2ccccc2)OC(=O)C(C#N)=C1c1ccccc1 (configuration not stated)
2. N#CC1CCCCOCCOCCOCCOCCOCCCCCC1=O (configuration not stated)
3. O=C(NCCCOC(=O)CCCCCCCCC(=O)OCCCNC(=O)NC(=O)c1c[nH]c(=O)[nH]c1=O)NC(=O)c1c[nH]c(=O)[nH]c1=O
4. CCSc1nnc(CSc2nc(-c3ccccc3)c(-c3ccccc3)[nH]2)n1-c1ccccc1
5. O=C(Cc1csc(-c2nc(CC(=O)NNc3ccccc3)cs2)n1)NNc1ccccc1
6. CC1(C)OCN(c2ccc(N3CCOCC3)cc2)Cn2c1nc1ccccc12
7. Cc1cccc(C)c1NC(=O)CCc1nnc2s/c(=C\c3ccc(N(C)C)cc3)c(=O)n12

1: > 100 µM (inactive); 2: > 100 µM (inactive); 3: > 100 µM (inactive); 4: 17.9 µM (inactive); 5: > 100 µM (inactive); 6: > 100 µM (inactive); 7: > 100 µM (inactive)

For every item in the list below, what is its measured GI50?
1. Cn1nc2ccc3nccc(N(CCO)CCO)c3c2n1
2. Cc1c(N(C)C)ccc2c(=O)c3cccc(CC(=O)O)c3oc12

["> 100 µM (inactive)", "> 100 µM (inactive)"]

For the compound shown here, CC(=O)c1cc2c3c(c1)c1cc4c(cc1c(=O)n3CC2)OCO4 , give the reported GI50.
23.7 µM (inactive)

====

system: CCRF-CEM; assay: NCI tumour cell line growth inhibition, 48 h
Calls of active or inactive are those of the source. No stated cut-off is given here; in the data, active = GI50 up to about 1.1 µM and inactive = higher.
Respond only with the outcome that fits, drawn from active, inactive

These recorded examples may help you get a feel for the data.
CN(CC(N)=O)C(=O)N(CCCl)N=O :: inactive
CC1(C)OCN(c2ccc(N3CCOCC3)cc2)Cn2c1nc1ccccc12 :: inactive
O=C1/C(=c2\c3ccccc3n3c(=O)c4ccccc4nc23)Nc2ccccc21 :: inactive
CC(=O)NC1=C(C)C(=O)c2c(nc3n2CC[C@H]3OC(C)=O)C1=O :: active
Cc1cc(C)c(C(=O)c2nnc3ccccc3c2N)c(C)c1 :: inactive
Cc1nc2ccc(S(=O)(=O)NS(=O)(=O)c3ccc(-c4ccccc4)cc3)cc2c(=O)n1NS(=O)(=O)c1ccc(-c2ccccc2)cc1 :: inactive
CCCCS(=O)(=O)Nc1ccc(Nc2c3ccccc3nc3ccccc23)c(OC)c1 :: active
O=C(Nc1ccc(F)cc1)c1cc2c(cc1Cl)Sc1nccn1S2(=O)=O :: inactive
COC(=O)c1c2c(cc3c1CC1(Cc4cc5c(c(C=O)c4C1)CCC5)C3)CCC2 (centres undefined) :: inactive
O=C(CC1=Nc2nnc(CCCCCCCc3nnc4n3C(=O)C(CC(=O)c3ccc5ccccc5c3)=N4)n2C1=O)c1ccc2ccccc2c1 :: inactive

Dear all, I need the recorded test outcome for Cc1c(F)c(N)c2c(=O)cc(-c3ccc(NC(=O)[C@@H](N)CCCCN)c(F)c3)oc2c1F , thank you.
inactive

Hi team, can someone confirm the assay call for C[N+]1(C(CO)Cc2c[nH]c3ccccc23)Cc2ccccc2C1 (centres undefined) ?
inactive

Tell me the assay call for CCOC(=O)C1(C#N)C(C#N)(C#N)C1(C#N)C#N please.
inactive

Hi, do you know how O=S(=O)(O)C(CO)c1ccccc1.O=S(=O)(O)Cc1ccccc1 (centres undefined) came out in this test?
inactive
